Data provenance is ChEMBL document CHEMBL1139593.

Molecular target: Procathepsin L (Homo sapiens) (UniProt P07711)
Sequence (P07711 114-333 limits assumed): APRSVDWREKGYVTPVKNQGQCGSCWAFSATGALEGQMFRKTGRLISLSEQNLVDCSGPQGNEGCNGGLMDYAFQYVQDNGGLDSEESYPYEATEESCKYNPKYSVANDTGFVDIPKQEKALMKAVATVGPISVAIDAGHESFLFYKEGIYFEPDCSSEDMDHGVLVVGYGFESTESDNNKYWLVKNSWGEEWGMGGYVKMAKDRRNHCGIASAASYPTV
Assay: Percent inhibition of human liver cathepsin L at 20 uM
Square brackets hold non-standard residues; d marks the D form. Peptide text beside a SMILES is read from it. * marks the point of attachment. ξ: configuration not given here. ξF = NC(Cc1ccccc1)C(=O)O; Cbz = O=C(OCc1ccccc1)*
// values below are reported inhibition
Write it as a number; the unit % goes unstated.

| compound | inhibition, % |
| --- | --- |
| Cc1c(C(=O)N[C@@H](Cc2ccccc2)C(=O)C(=O)NCc2ccccc2)oc2cc3c(cc2c1=O)OCCO3 | 95.8 |
| NC(=O)C(=O)[C@H](Cc1ccccc1)NC(=O)c1cc(=O)c2ccccc2o1 | 99.1 |
| Cc1c(C(=O)N[C@@H](Cc2ccccc2)C(=O)C(=O)NCCc2ccccc2)oc2ccccc2c1=O | 98.3 |
| Cc1c(C(=O)N[C@@H](Cc2ccccc2)C(=O)C(=O)NCCN2CCOCC2)oc2cc3c(cc2c1=O)OCCO3 | 92 |
| Cc1c(C(=O)N[C@@H](Cc2ccccc2)C(=O)C(=O)NC(C)C)oc2cc3c(cc2c1=O)OCCO3 | 74.9 |
| Cc1c(C(=O)N[C@@H](Cc2ccccc2)C(=O)C(N)=O)oc2cc3c(cc2c1=O)OCCO3 | 96.6 |

State, in one line, measured inhibition of CC(C)[C@H](NC(=O)OCc1ccccc1)C(=O)NC(C=O)Cc1ccccc1 (stereo partly drawn) (Cbz-Val-[ξF]-aldehyde)
100

State, in one line, measured inhibition of `Cc1c(C(=O)N[C@@H](Cc2ccccc2)C(=O)C(=O)NCCN2CCOCC2)oc2ccccc2c1=O`
69.6

State, in one line, measured inhibition of `CCc1c(C(=O)N[C@@H](Cc2ccccc2)C(=O)C(N)=O)oc2ccccc2c1=O`
96.6

State, in one line, measured inhibition of `Cc1c(C(=O)N[C@@H](Cc2ccccc2)C(=O)C(N)=O)oc2ccccc2c1=O`
98.1

State, in one line, measured inhibition of `Cc1c(C(=O)N[C@@H](Cc2ccccc2)C(=O)C(=O)NC(C)C)oc2ccccc2c1=O`
71.2

State, in one line, measured inhibition of `Cc1c(C(=O)N[C@@H](Cc2ccccc2)C(=O)C(=O)NCc2ccccc2)oc2ccccc2c1=O`
95.6

State, in one line, measured inhibition of `Cc1c(C(=O)N[C@@H](Cc2ccccc2)C(=O)C(=O)NCCc2ccccc2)oc2cc3c(cc2c1=O)OCCO3`
95.7
